Recorded measurements of MIC, one per entry
Tested on: S. pneumoniae ATCC 49619
Assay: Primary MIC assay, S. pneumoniae ATCC 49619
Format: cell-based, Streptococcus pneumoniae
Conditions: Streptococcus pneumoniae, ATCC49619; Table 1; read-out: MIC S. pneumoniae ATCC 49619
Report only the number, with the unit µg/mL understood.

Reference set (5 entries):
CC(C)CCc1cnnn1-c1ccccc1OCC(=O)N[C@H](CCCCN)C(=O)N[C@H](CCCNC(=N)N)Cn1cc(C2CCCCC2)nn1 [Compound 37] : 8
CC(C)CCc1cnnn1-c1c(OCC(=O)N[C@H](CCCCN)C(=O)N[C@H](CCCNC(=N)N)Cn2cc(C3CCCCC3)nn2)ccc2ccccc12.Cl.Cl [Compound 43] : 4
CC(C)CCc1cnnn1-c1c(OCC(=O)N[C@H](CCCNC(=N)N)Cn2cc(CC3CCCCC3)nn2)ccc2ccccc12.Cl [Compound 25] : 8
CC(C)CCc1cnnn1-c1ccccc1OCC(=O)N[C@H](CCCNC(=N)N)Cn1cc(Cc2ccccc2)nn1.Cl [Compound 16] : 32
CC(C)CCc1cnnn1-c1ccccc1OCC(=O)N[C@H](CCCCN)C(=O)N[C@H](CCCNC(=N)N)Cn1cc(Cc2ccccc2)nn1.Cl.Cl [Compound 39] : 16

MIC lookup needed for CC(C)CCc1cn(-c2c(OCC(=O)N[C@H](CCCNC(=N)N)Cn3cc(CC4CCCCC4)nn3)ccc3ccccc23)nn1.Cl [Compound 22] , thanks.
8

Bench note: what MIC did CC(C)CCc1cn(-c2ccccc2OCC(=O)N[C@H](CCCNC(=N)N)Cn2cc(C3CCCCC3)nn2)nn1 [Compound 10] show?
16

Form field: reported MIC of CC(C)CCc1cnnn1-c1ccccc1OCC(=O)N[C@H](CCCNC(=N)N)Cn1cc(C2CCCCC2)nn1 [Compound 14]
32

###

Recorded HC50, one value per entry.
Test system: human erythrocytes
Assay: Hemolysis assay, HC50 determination
Format: cell-based
Conditions: Table 1; lysis of human erythrocytes

Use these answered entries as a reference point.
CC(C)CCc1cn(-c2c(OCC(=O)N[C@H](CCCNC(=N)N)Cn3cc(Cc4ccccc4)nn3)ccc3ccccc23)nn1.Cl : >32 µg/mL
CC(C)CCc1cn(-c2ccccc2OCC(=O)N[C@H](CCCNC(=N)N)Cn2cc(C3CCCCC3)nn2)nn1 : >32 µg/mL
CC(C)CCc1cnnn1-c1ccccc1OCC(=O)N[C@H](CCCCN)C(=O)N[C@H](CCCNC(=N)N)Cn1cc(C2CCCCC2)nn1 : >32 µg/mL

Requested field: HC50. Item: CC(C)CCc1cn(-c2c(OCC(=O)N[C@H](CCCNC(=N)N)Cn3cc(CC4CCCCC4)nn3)ccc3ccccc23)nn1.Cl
>32 µg/mL

Name the recorded HC50 for CC(C)CCc1cnnn1-c1c(OCC(=O)N[C@H](CCCNC(=N)N)Cn2cc(CC3CCCCC3)nn2)ccc2ccccc12.Cl .
10.6 µg/mL

Requested read-out: HC50. Entry: Cl.Cl.N=C(N)NCCC[C@H](Cn1cc(Cc2ccccc2)nn1)NC(=O)[C@@H](CCCCN)NC(=O)COc1ccccc1-c1cn(Cc2ccccc2)nn1
>32 µg/mL

###

Listed next: entries and their corresponding HC50.
Test system: human erythrocytes
Assay: Hemolysis assay, HC50 determination
Assay type: cell-based
Conditions: Table 1; lysis of human erythrocytes

CC(C)CCc1cn(-c2ccccc2OCC(=O)N[C@H](CCCNC(=N)N)Cn2cc(-c3ccc(F)cc3)nn2)nn1.Cl [Compound 12] : >32 µg/mL
CC(C)CCc1cn(-c2ccccc2OCC(=O)N[C@H](CCCNC(=N)N)Cn2cc(C3CCCC3)nn2)nn1.Cl [Compound 11] : >32 µg/mL
CC(C)CCc1cnnn1-c1c(OCC(=O)N[C@H](CCCCN)C(=O)N[C@H](CCCNC(=N)N)Cn2cc(CC3CCCCC3)nn2)ccc2ccccc12 [Compound 44] : >32 µg/mL

Returns the measured HC50 for the input compound. Input: CC(C)CCOc1ccccc1-n1nncc1COCC(=O)N[C@H](CCCCN)C(=O)N[C@H](CCCNC(=N)N)Cn1cc(C2CCCCC2)nn1 [Compound 48]
24.5 µg/mL

Sample CC(C)CCc1cnnn1-c1ccccc1OCC(=O)N[C@H](CCCNC(=N)N)Cn1cc(Cc2ccccc2)nn1.Cl [Compound 16] — what was its HC50?
>32 µg/mL

Query: HC50; subject: CC(C)CCc1cn(-c2c(OCC(=O)N[C@H](CCCCN)C(=O)N[C@H](CCCNC(=N)N)Cn3cc(C4CCCCC4)nn3)ccc3ccccc23)nn1.Cl.Cl [Compound 40]
32 µg/mL

###

System: Cryptococcus neoformans var. grubii ATCC 208821
Experiment: CO-ADD MIC assay, C. neoformans var. grubii ATCC 208821
Format: cell-based
Conditions: Table S1
Entries and their MIC C. neoformans var. grubii ATCC 208821
Number first, unit second.

# count of solved cases: 2
CC(C)CCc1cn(-c2c(OCC(=O)N[C@H](CCCCN)C(=O)N[C@H](CCCNC(=N)N)Cn3cc(C4CCCCC4)nn3)ccc3ccccc23)nn1.Cl.Cl : 4 µg/mL
CC(C)CCc1cn(-c2c(OCC(=O)N[C@H](CCCCN)C(=O)N[C@H](CCCNC(=N)N)Cn3cc(Cc4ccccc4)nn3)ccc3ccccc23)nn1.Cl.Cl : 8 µg/mL

Please find the next molecule below.
Please give the measured MIC C. neoformans var. grubii ATCC 208821 for this molecule: CC(C)CCc1cnnn1-c1c(OCC(=O)N[C@H](CCCNC(=N)N)Cn2cc(CC3CCCCC3)nn2)ccc2ccccc12.Cl
8 µg/mL

###

System: E. faecalis ATCC 29212
Experiment: Primary MIC assay, E. faecalis ATCC 29212
Assay type: cell-based, Enterococcus faecalis
Conditions: Enterococcus faecalis, ATCC29212; Table 1; read-out: MIC E. faecalis ATCC 29212
Test Readout: MIC (µg/mL)
The reply should be a number in µg/mL, with the unit left off.

CC(C)CCc1cnnn1-c1ccccc1OCC(=O)N[C@H](CCCNC(=N)N)Cn1cc(CC2CCCCC2)nn1.Cl [Compound 15] : 16
CC(C)CCc1cnnn1-c1c(OCC(=O)N[C@H](CCCNC(=N)N)Cn2cc(CC3CCCCC3)nn2)ccc2ccccc12.Cl [Compound 25] : 8
CC(C)CCc1cn(-c2c(OCC(=O)N[C@H](CCCCN)C(=O)N[C@H](CCCNC(=N)N)Cn3cc(Cc4ccccc4)nn3)ccc3ccccc23)nn1.Cl.Cl [Compound 42] : 8

Which MIC is listed for CC(C)CCc1cnnn1-c1c(OCC(=O)N[C@H](CCCCN)C(=O)N[C@H](CCCNC(=N)N)Cn2cc(Cc3ccccc3)nn2)ccc2ccccc12.Cl.Cl [Compound 45] ?
64

Sample CC(C)CCc1cn(-c2c(OCC(=O)N[C@H](CCCNC(=N)N)Cn3cc(Cc4ccccc4)nn3)ccc3ccccc23)nn1.Cl [Compound 23] — what was its MIC?
4

###

Data export: MIC values recorded with C. albicans ATCC 90028.
All answers are understood in µg/mL, so give the number only.

CC(C)CCc1cn(-c2c(OCC(=O)N[C@H](CCCCN)C(=O)N[C@H](CCCNC(=N)N)Cn3cc(CC4CCCCC4)nn3)ccc3ccccc23)nn1 : 32

Quick check: MIC on C. albicans ATCC 90028, item CC(C)CCc1cnnn1-c1c(OCC(=O)N[C@H](CCCCN)C(=O)N[C@H](CCCNC(=N)N)Cn2cc(CC3CCCCC3)nn2)ccc2ccccc12 ?
32

// map CC(C)CCc1cn(-c2c(OCC(=O)N[C@H](CCCNC(=N)N)Cn3cc(CC4CCCCC4)nn3)ccc3ccccc23)nn1.Cl to recorded MIC (system: C. albicans ATCC 90028)
16

###

Known HC50 of a selection of molecules
Tested on: human erythrocytes
Experiment: Hemolysis assay, HC50 determination
Format: cell-based
Settings: Table 1; lysis of human erythrocytes
Report only the number, with the unit µg/mL understood.

CC(C)CCc1cn(-c2c(OCC(=O)N[C@H](CCCCN)C(=O)N[C@H](CCCNC(=N)N)Cn3cc(CC4CCCCC4)nn3)ccc3ccccc23)nn1 [Compound 41] : 32

We now examine a further molecule.
Item CC(C)CCc1cn(-c2c(OCC(=O)N[C@H](CCCCN)C(=O)N[C@H](CCCNC(=N)N)Cn3cc(Cc4ccccc4)nn3)ccc3ccccc23)nn1.Cl.Cl [Compound 42] has what recorded HC50?
32

###

Listing of recorded MIC by entry.
Test system: E. faecalis ATCC 29212
Assay: Primary MIC assay, E. faecalis ATCC 29212
Type: cell-based, Enterococcus faecalis
Conditions: Enterococcus faecalis, ATCC29212; Table 1; read-out: MIC E. faecalis ATCC 29212

CC(C)CCc1cnnn1-c1ccccc1OCC(=O)N[C@H](CCCNC(=N)N)Cn1cc(Cc2ccccc2)nn1.Cl [Compound 16] : 32 µg/mL
CC(C)CCc1cnnn1-c1c(OCC(=O)N[C@H](CCCCN)C(=O)N[C@H](CCCNC(=N)N)Cn2cc(CC3CCCCC3)nn2)ccc2ccccc12 [Compound 44] : 16 µg/mL
CC(C)CCc1cn(-c2ccccc2OCC(=O)N[C@H](CCCNC(=N)N)Cn2cc(C3CCCCC3)nn2)nn1 [Compound 10] : 32 µg/mL
Cl.Cl.N=C(N)NCCC[C@H](Cn1cc(Cc2ccccc2)nn1)NC(=O)[C@@H](CCCCN)NC(=O)COc1ccccc1-c1cn(Cc2ccccc2)nn1 [Compound 46] : 64 µg/mL

Entry CC(C)CCOc1ccccc1-n1nncc1COCC(=O)N[C@H](CCCCN)C(=O)N[C@H](CCCNC(=N)N)Cn1cc(C2CCCCC2)nn1 [Compound 48] : reported MIC = ?
> 32 µg/mL

Field request: MIC | item: CC(C)CCc1cnnn1-c1ccccc1OCC(=O)N[C@H](CCCCN)C(=O)N[C@H](CCCNC(=N)N)Cn1cc(C2CCCCC2)nn1 [Compound 37]
16 µg/mL
